Measured mass density accompanies every entry in the list below.
- procedure summary: cn = amount concentration of the nth substance listed, in mol/dm3
- experimental parameters: 323.15 K; 101 kPa; Liquid; c1 = 0.8
reported metric: mass density (kg/m3)

compound="OC[C@@H](O)[C@H](O)[C@@H](O)CO [xylitol] + O" recorded_number=1027.17
compound="OC[C@@H](O)[C@@H](O[C@H]1O[C@H](CO)[C@@H](O)[C@H](O)[C@H]1O)[C@H](O)[C@@H](O)CO [4-O-α-D-glucopyranosyl-D-glucitol] + O" recorded_number=1062.12
compound="OC[C@@H](O)[C@@H](O)CO [meso-1,2,3,4-butanetetrol] + O" recorded_number=1015.63
compound="OC[C@@H](O)[C@@H](O)[C@H](O)[C@H](O)CO [mannitol] + O" recorded_number=1036.78
compound="OC[C@@H](O)[C@@H](O)[C@H](O)[C@@H](O)CO [D-sorbitol] + O" recorded_number=1037.25

* * *

- procedure summary: cn = amount concentration of the nth substance listed, in mol/dm3
- experimental parameters: 323.15 K; 101 kPa; Liquid; c1 = 0.1
We begin with a simple list: items and their reported mass density.
reported metric: mass density (kg/m3)

molecule="OC[C@@H](O)[C@@H](O)[C@H](O)[C@@H](O)CO [D-sorbitol] + O" reported_metric="mass density" recorded_number=994.32
molecule="OC[C@@H](O)[C@@H](O)[C@H](O)[C@H](O)CO [mannitol] + O" reported_metric="mass density" recorded_number=994.21
molecule="OC[C@@H](O)[C@@H](O[C@H]1O[C@H](CO)[C@@H](O)[C@H](O)[C@H]1O)[C@H](O)[C@@H](O)CO [4-O-α-D-glucopyranosyl-D-glucitol] + O" reported_metric="mass density" recorded_number=999.68
molecule="OC[C@@H](O)[C@@H](O)CO [meso-1,2,3,4-butanetetrol] + O" reported_metric="mass density" recorded_number=991.64
molecule="OC[C@@H](O)[C@H](O)[C@@H](O)CO [xylitol] + O" reported_metric="mass density" recorded_number=992.72

* * *

- procedure summary: cn = amount concentration of the nth substance listed, in mol/dm3
- experimental parameters: 313.15 K; 101 kPa; Liquid; c1 = 1
reported metric: viscosity (mPa·s)

compound="OC[C@@H](O)[C@H](O)[C@@H](O)CO [xylitol] + O" recorded_number=0.9632
compound="OC[C@@H](O)[C@@H](O[C@H]1O[C@H](CO)[C@@H](O)[C@H](O)[C@H]1O)[C@H](O)[C@@H](O)CO [4-O-α-D-glucopyranosyl-D-glucitol] + O" recorded_number=1.741
compound="OC[C@@H](O)[C@@H](O)[C@H](O)[C@@H](O)CO [D-sorbitol] + O" recorded_number=1.03
compound="OC[C@@H](O)[C@@H](O)CO [meso-1,2,3,4-butanetetrol] + O" recorded_number=0.8965

* * *

mass density overview
- procedure summary: cn = amount concentration of the nth substance listed, in mol/dm3
- experimental parameters: 303.15 K; 101 kPa; Liquid; c1 = 0.9
reported metric: mass density (kg/m3)

compound="OC[C@@H](O)[C@@H](O)[C@H](O)[C@@H](O)CO [D-sorbitol] + O" unit_info=kg/m3 recorded_number=1052.72
compound="OC[C@@H](O)[C@@H](O)CO [meso-1,2,3,4-butanetetrol] + O" unit_info=kg/m3 recorded_number=1027.8
compound="OC[C@@H](O)[C@H](O)[C@@H](O)CO [xylitol] + O" unit_info=kg/m3 recorded_number=1040.06
compound="OC[C@@H](O)[C@@H](O[C@H]1O[C@H](CO)[C@@H](O)[C@H](O)[C@H]1O)[C@H](O)[C@@H](O)CO [4-O-α-D-glucopyranosyl-D-glucitol] + O" unit_info=kg/m3 recorded_number=1078.68

* * *

// mass density lookup, one value per entry
- procedure summary: cn = amount concentration of the nth substance listed, in mol/dm3
- experimental parameters: 293.15 K; 101 kPa; Liquid; c1 = 0.3
reported metric: mass density (kg/m3)

compound="OC[C@@H](O)[C@H](O)[C@@H](O)CO [xylitol] + O" reported_metric="mass density" recorded_number=1013.42
compound="OC[C@@H](O)[C@@H](O)[C@H](O)[C@H](O)CO [mannitol] + O" reported_metric="mass density" recorded_number=1016.96
compound="OC[C@@H](O)[C@@H](O[C@H]1O[C@H](CO)[C@@H](O)[C@H](O)[C@H]1O)[C@H](O)[C@@H](O)CO [4-O-α-D-glucopyranosyl-D-glucitol] + O" reported_metric="mass density" recorded_number=1027.29
compound="OC[C@@H](O)[C@@H](O)[C@H](O)[C@@H](O)CO [D-sorbitol] + O" reported_metric="mass density" recorded_number=1017.64
compound="OC[C@@H](O)[C@@H](O)CO [meso-1,2,3,4-butanetetrol] + O" reported_metric="mass density" recorded_number=1009.37

* * *

Reported values of viscosity for individual entries
- procedure summary: cn = amount concentration of the nth substance listed, in mol/dm3
- experimental parameters: 323.15 K; 101 kPa; Liquid; c1 = 0.8
reported metric: viscosity (mPa·s)

compound="OC[C@@H](O)[C@@H](O)[C@H](O)[C@H](O)CO [mannitol] + O" reported_metric=viscosity unit_info=mPa·s recorded_number=0.8456
compound="OC[C@@H](O)[C@@H](O)[C@H](O)[C@@H](O)CO [D-sorbitol] + O" reported_metric=viscosity unit_info=mPa·s recorded_number=0.7779
compound="OC[C@@H](O)[C@H](O)[C@@H](O)CO [xylitol] + O" reported_metric=viscosity unit_info=mPa·s recorded_number=0.7344
compound="OC[C@@H](O)[C@@H](O[C@H]1O[C@H](CO)[C@@H](O)[C@H](O)[C@H]1O)[C@H](O)[C@@H](O)CO [4-O-α-D-glucopyranosyl-D-glucitol] + O" reported_metric=viscosity unit_info=mPa·s recorded_number=1.15
compound="OC[C@@H](O)[C@@H](O)CO [meso-1,2,3,4-butanetetrol] + O" reported_metric=viscosity unit_info=mPa·s recorded_number=0.6909

* * *

- procedure summary: cn = amount concentration of the nth substance listed, in mol/dm3
- experimental parameters: 313.15 K; 101 kPa; Liquid; c1 = 0.7
reported metric: mass density (kg/m3)

compound="OC[C@@H](O)[C@@H](O)[C@H](O)[C@@H](O)CO [D-sorbitol] + O" unit_info=kg/m3 recorded_number=1036.08
compound="OC[C@@H](O)[C@@H](O[C@H]1O[C@H](CO)[C@@H](O)[C@H](O)[C@H]1O)[C@H](O)[C@@H](O)CO [4-O-α-D-glucopyranosyl-D-glucitol] + O" unit_info=kg/m3 recorded_number=1057.3
compound="OC[C@@H](O)[C@H](O)[C@@H](O)CO [xylitol] + O" unit_info=kg/m3 recorded_number=1026.7
compound="OC[C@@H](O)[C@@H](O)CO [meso-1,2,3,4-butanetetrol] + O" unit_info=kg/m3 recorded_number=1015.82
compound="OC[C@@H](O)[C@@H](O)[C@H](O)[C@H](O)CO [mannitol] + O" unit_info=kg/m3 recorded_number=1035.6

* * *

Consider the following compounds and their measured viscosity readings.
- procedure summary: cn = amount concentration of the nth substance listed, in mol/dm3
- experimental parameters: 303.15 K; 101 kPa; Liquid; c1 = 0.5
Numbers after ± are expanded uncertainties.
reported metric: viscosity

compound="OC[C@@H](O)[C@H](O)[C@@H](O)CO [xylitol] + O" result="0.9829 ± 0.024 mPa·s"
compound="OC[C@@H](O)[C@@H](O[C@H]1O[C@H](CO)[C@@H](O)[C@H](O)[C@H]1O)[C@H](O)[C@@H](O)CO [4-O-α-D-glucopyranosyl-D-glucitol] + O" result="1.361 ± 0.032 mPa·s"
compound="OC[C@@H](O)[C@@H](O)[C@H](O)[C@H](O)CO [mannitol] + O" result="1.085 ± 0.026 mPa·s"
compound="OC[C@@H](O)[C@@H](O)[C@H](O)[C@@H](O)CO [D-sorbitol] + O" result="1.029 ± 0.025 mPa·s"
compound="OC[C@@H](O)[C@@H](O)CO [meso-1,2,3,4-butanetetrol] + O" result="0.9366 ± 0.023 mPa·s"

* * *

- procedure summary: cn = amount concentration of the nth substance listed, in mol/dm3
- experimental parameters: 323.15 K; 101 kPa; Liquid; c1 = 0.3
Listing of entries alongside the reported viscosity.
reported metric: viscosity (mPa·s)

molecule="OC[C@@H](O)[C@@H](O)[C@H](O)[C@@H](O)CO [D-sorbitol] + O" reported_metric=viscosity unit_info=mPa·s recorded_number=0.6199
molecule="OC[C@@H](O)[C@@H](O[C@H]1O[C@H](CO)[C@@H](O)[C@H](O)[C@H]1O)[C@H](O)[C@@H](O)CO [4-O-α-D-glucopyranosyl-D-glucitol] + O" reported_metric=viscosity unit_info=mPa·s recorded_number=0.7175
molecule="OC[C@@H](O)[C@@H](O)[C@H](O)[C@H](O)CO [mannitol] + O" reported_metric=viscosity unit_info=mPa·s recorded_number=0.6356
molecule="OC[C@@H](O)[C@H](O)[C@@H](O)CO [xylitol] + O" reported_metric=viscosity unit_info=mPa·s recorded_number=0.6093
molecule="OC[C@@H](O)[C@@H](O)CO [meso-1,2,3,4-butanetetrol] + O" reported_metric=viscosity unit_info=mPa·s recorded_number=0.5986
